Molecular target: mouse ADAMTS7 (Mus musculus, UniProt Q68SA9, E373Q)
Construct: Full-length mouse Adamts7 1-1857 (Uniprot Q68SA9, WT or E373Q catalytic mutant); expressed in transfected cells; host or cells: Human Coronary Artery Smooth Muscle Cells (HCA-SMC, Lonza), adenovirus 50 MOI
Sequence (Q68SA9 221-1657 E373Q): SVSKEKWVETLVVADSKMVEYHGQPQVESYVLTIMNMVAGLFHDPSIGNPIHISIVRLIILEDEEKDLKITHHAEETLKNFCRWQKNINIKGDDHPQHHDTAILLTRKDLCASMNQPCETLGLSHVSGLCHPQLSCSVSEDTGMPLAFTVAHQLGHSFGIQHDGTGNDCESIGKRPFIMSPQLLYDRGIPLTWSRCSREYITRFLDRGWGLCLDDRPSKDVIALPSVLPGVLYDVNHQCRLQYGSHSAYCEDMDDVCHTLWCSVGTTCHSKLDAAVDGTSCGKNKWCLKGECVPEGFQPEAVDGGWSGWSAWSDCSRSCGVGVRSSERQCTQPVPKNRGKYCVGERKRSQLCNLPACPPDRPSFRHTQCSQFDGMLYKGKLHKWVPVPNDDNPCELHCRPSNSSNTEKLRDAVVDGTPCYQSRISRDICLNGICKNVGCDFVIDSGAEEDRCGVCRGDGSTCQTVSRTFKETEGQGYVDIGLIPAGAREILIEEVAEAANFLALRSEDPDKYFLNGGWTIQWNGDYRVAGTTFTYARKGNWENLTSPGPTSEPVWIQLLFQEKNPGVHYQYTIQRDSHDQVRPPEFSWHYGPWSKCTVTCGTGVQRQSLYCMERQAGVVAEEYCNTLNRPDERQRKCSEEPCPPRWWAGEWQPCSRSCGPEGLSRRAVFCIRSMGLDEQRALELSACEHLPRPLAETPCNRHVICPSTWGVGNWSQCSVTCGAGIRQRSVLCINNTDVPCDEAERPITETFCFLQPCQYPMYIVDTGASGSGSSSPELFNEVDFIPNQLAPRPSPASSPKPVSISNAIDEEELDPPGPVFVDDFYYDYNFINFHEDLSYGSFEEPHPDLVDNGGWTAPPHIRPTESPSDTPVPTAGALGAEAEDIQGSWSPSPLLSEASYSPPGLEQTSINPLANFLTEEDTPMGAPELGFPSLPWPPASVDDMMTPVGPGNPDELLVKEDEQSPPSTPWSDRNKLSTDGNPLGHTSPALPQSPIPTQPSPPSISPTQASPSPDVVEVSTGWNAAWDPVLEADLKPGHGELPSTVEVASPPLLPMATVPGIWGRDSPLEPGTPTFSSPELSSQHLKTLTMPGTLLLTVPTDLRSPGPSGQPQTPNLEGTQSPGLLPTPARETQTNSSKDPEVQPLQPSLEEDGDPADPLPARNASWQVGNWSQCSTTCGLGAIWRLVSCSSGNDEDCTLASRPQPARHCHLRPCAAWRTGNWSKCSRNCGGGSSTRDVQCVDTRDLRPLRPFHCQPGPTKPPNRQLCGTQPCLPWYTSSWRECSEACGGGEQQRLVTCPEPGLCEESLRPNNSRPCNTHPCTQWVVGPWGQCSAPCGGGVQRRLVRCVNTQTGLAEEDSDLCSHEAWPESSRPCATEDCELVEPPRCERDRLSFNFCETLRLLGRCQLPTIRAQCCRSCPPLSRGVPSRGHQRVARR
Assay: TMT10 TAILS N-terminomics, SMC2 experiment (process replicates, trypsin/AspN digest)
Type: cell-based
Conditions: SMC2_TAILS HC; log fold change of N-terminal peptide, Ad-mADAMTS7 EQ over Luc
outcome.measure: logFC.mEQ.over.Luc

Example entries begin here.
>>> quantitative_result("NBEA_1892 (LEKVAPLLR; listed as Homo sapiens)")
"−0.08"
>>> quantitative_result("LTBP2_290 (QHVGLSR; listed as Homo sapiens)")
"−0.10"
>>> quantitative_result("LOXL1_218 (AVASAGVIYPYQPR; listed as Homo sapiens)")
"−0.11"
>>> quantitative_result("NID2_951 (YAYPGAR; listed as Homo sapiens)")
"−0.06"
>>> quantitative_result("VAT1_42 (AASPPLLR; listed as Homo sapiens)")
0.27
>>> quantitative_result("VIM_322 (QVQSLTCEV; listed as Homo sapiens)")
"−0.10"
>>> quantitative_result("VCAN_3367 (FKNSSSAK; listed as Homo sapiens)")
"−0.72"
>>> quantitative_result("LTBP2_79 (VAGLQPVER; listed as Homo sapiens)")
"−0.09"

[A] VIM_276 (YESVAAKNLQ; listed as Homo sapiens)
[B] LOXL1_219 (VASAGVIYPYQPR; listed as Homo sapiens)
Request: Response body: label of entry with the larger logFC.mEQ.over.Luc; valid values A , B . In your reply, give the label of the chosen option.
Result: B
